- assaySystem: Human mTOR (Homo sapiens, UniProt P42345)
- Construct: FLAG
- measurementProtocol: mTOR kinase assay (DELFIA format, purified enzyme)
- testParameters: His6-S6K substrate, read-out: TOR Kinase IC50
- Experimental: mTOR Kinase Assay Methods Human mTOR assays (See Toral-Barza, et al. Biochem Biophys. Res. Commun. 2005 Jun. 24; 332(1):304-10) with purified enzyme are performed in 96-well plates by DELFIA format as follows. […] 100 μL of DELFIA Enhancement solution is added to each well and the plates are read in a PerkinElmer Victor model plate reader. […]
Label y when IC50 < 0.9 µM; otherwise n.

For orientation, consider the following solved cases.
molecule | assaySystem | classAssignment
CCNC(=O)Nc1ccc(-c2nc(C3=CCOCC3)c3cnn(CC(F)(F)F)c3n2)cc1 | Human mTOR (Homo sapiens, UniProt P42345) | y
Oc1cccc(-c2nc(C3=CCOCC3)c3ncn(C4CCN(Cc5ccco5)CC4)c3n2)c1 | Human mTOR (Homo sapiens, UniProt P42345) | n
CNC(=O)Nc1ccc(-c2nc(C3=CCOCC3)c3cnn(CC(F)(F)F)c3n2)cc1 | Human mTOR (Homo sapiens, UniProt P42345) | y

Query: Bench note: check whether Oc1cccc(-c2nc(C3=CCOCC3)c3cnn(-c4ccccc4)c3n2)c1 shows IC50 below 0.9 µM
Reply: y

Query: Could you please tell me whether IC50 recorded for Oc1cccc(-c2nc(C3=CCOCC3)c3ncn(C4CCN(Cc5ccccc5)CC4)c3n2)c1 is less than 0.9 µM?
Reply: n

Query: A record lists O=C(Nc1ccc(-c2nc(C3=CCOCC3)c3ncn(C4CCN(Cc5ccc[nH]5)CC4)c3n2)cc1)NC1CCN(C(=O)OCc2ccccc2)CC1 . Is its IC50 below 0.9 µM?
Reply: n

Query: Please indicate whether the reported IC50 of Oc1cncc(-c2nc(C3=CCOCC3)c3ncn(C4CCN(Cc5ccc(Cl)nc5)CC4)c3n2)c1 is strictly below 0.9 µM.
Reply: n

Query: Is IC50 of CC(=O)Nc1ccc(-c2nc(C3=CCOCC3)c3cnn(C4CCN(Cc5ccccc5)CC4)c3n2)cc1 strictly below 0.9 µM?
Reply: y

Query: Report whether reported IC50 is lower than 0.9 µM (strictly) for Oc1cccc(-c2nc(C3=CCOCC3)c3ncn(C4CCN(Cc5ccc(N6CCOCC6)nc5)CC4)c3n2)c1
Reply: y

###

- assaySystem: UniProtKB P48736
- measurementProtocol: Fluorescence polarization assay for PI3K
- Format: biochemical
resultType: pIC50
Give bare numbers, as −log10 of the molar value.

molecule | resultType | valueObserved
Oc1cccc(-c2nc(C3=CCOCC3)c3cnn(-c4ccccc4)c3n2)c1 | pIC50 | 5.72
Oc1cncc(-c2nc(C3=CCOCC3)c3ncn(C4CCNCC4)c3n2)c1 | pIC50 | 5.58
OCc1cccc(-c2nc(C3=CCOCC3)c3ncn(C4CCN(Cc5ccc(Br)nc5)CC4)c3n2)c1 | pIC50 | 5.87

Query: # query: pIC50 | item CNC(=O)Nc1ccc(-c2nc(C3=CCOCC3)c3cnn(C4CCN(Cc5cccnc5)CC4)c3n2)cc1 | system: UniProtKB P48736
Reply: 5.49

###

- assaySystem: PI3 Kinase γ (Homo sapiens, UniProt P48736)
- Sequence (P48736 whole entry): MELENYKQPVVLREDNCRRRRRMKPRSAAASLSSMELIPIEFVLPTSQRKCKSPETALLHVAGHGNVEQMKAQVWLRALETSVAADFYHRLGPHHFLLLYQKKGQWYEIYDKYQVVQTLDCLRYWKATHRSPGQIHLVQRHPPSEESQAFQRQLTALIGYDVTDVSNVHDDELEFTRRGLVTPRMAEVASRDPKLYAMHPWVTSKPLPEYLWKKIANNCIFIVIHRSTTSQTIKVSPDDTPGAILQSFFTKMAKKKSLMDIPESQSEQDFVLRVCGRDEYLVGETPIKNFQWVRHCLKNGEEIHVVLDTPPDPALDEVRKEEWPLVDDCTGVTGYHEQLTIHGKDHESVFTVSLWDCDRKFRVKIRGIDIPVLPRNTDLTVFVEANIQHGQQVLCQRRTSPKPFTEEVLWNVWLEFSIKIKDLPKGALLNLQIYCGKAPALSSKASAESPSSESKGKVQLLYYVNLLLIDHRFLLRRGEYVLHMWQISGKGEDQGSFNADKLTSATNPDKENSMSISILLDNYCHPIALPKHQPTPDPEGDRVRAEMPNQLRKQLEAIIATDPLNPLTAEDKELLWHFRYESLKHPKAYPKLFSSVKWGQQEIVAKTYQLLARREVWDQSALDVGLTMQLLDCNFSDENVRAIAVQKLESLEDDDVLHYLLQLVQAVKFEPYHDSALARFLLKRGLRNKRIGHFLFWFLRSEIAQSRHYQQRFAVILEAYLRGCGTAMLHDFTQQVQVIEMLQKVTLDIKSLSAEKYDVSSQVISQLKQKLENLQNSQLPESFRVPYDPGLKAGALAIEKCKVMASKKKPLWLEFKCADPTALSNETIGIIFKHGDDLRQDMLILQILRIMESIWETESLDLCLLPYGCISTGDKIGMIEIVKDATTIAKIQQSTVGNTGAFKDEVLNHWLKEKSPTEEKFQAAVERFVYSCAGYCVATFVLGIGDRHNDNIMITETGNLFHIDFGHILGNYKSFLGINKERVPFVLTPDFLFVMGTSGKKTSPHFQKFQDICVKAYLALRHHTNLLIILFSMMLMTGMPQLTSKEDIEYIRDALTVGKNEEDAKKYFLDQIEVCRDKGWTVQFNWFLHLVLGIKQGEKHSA
Decide using IC50 alone. Strictly below 2 µM: MET. Equal to or above 2 µM: NOT MET.

Use these answered entries as a reference point.
molecule | assaySystem | classAssignment
Oc1cncc(-c2nc(C3=CCOCC3)c3nn[nH]c3n2)c1 [Compound 50] | PI3 Kinase γ (Homo sapiens, UniProt P48736) | MET
Oc1cncc(-c2nc(C3=CCOCC3)c3ncn(C4CCN(Cc5cccnc5)CC4)c3n2)c1 [Compound 29] | PI3 Kinase γ (Homo sapiens, UniProt P48736) | NOT MET
Oc1cncc(-c2nc(C3=CCOCC3)c3ncn(C4CCN(Cc5ccc(Br)nc5)CC4)c3n2)c1 [Compound 30] | PI3 Kinase γ (Homo sapiens, UniProt P48736) | NOT MET
Oc1cncc(-c2nc(C3=CCOCC3)c3ncn(C4CCN(Cc5ccc(Cl)nc5)CC4)c3n2)c1 [Compound 37] | PI3 Kinase γ (Homo sapiens, UniProt P48736) | MET
CNC(=O)Nc1ccc(-c2nc(C3=CCOCC3)c3cnn(C4CCN(C(=O)c5cccnc5)CC4)c3n2)cc1 [Compound 5] | PI3 Kinase γ (Homo sapiens, UniProt P48736) | MET

Query: Say whether its IC50 is strictly beneath 2 µM. Entry: CC(=O)Nc1ccc(-c2nc(C3=CCOCC3)c3cnn(C4CCN(Cc5ccccc5)CC4)c3n2)cc1 [Compound 3]
Reply: NOT MET

Query: Criterion: IC50 strictly below 2 µM. Is it met by O=C(Nc1ccc(-c2nc(C3=CCOCC3)c3cnn(CC(F)(F)F)c3n2)cc1)OCCO [Compound 10a] ?
Reply: NOT MET

Query: Find out if reported IC50 for O=c1[nH]c2nc(-c3cccc(CO)c3)nc(C3=CCOCC3)c2[nH]1 [Compound 39] is less than 2 µM
Reply: MET

Origin of the recorded values: patent US20090192176A1
